assay: Anticancer human tumor 997537-175-T-J1-PDC patient-derived colon adenocarcinoma cell line growth inhibition [POLQ]; conditions: 997537-175-T-J1-PDC complex spheroid viability, combination with POLQ inhibitors; second compound 0.316 µM; first compound 10 µM; active compounds read low
RESULT_TYPE: viability, T/C (%)
Give bare numbers, in %.

COc1cc2cc(C(=O)CCC(=O)O)sc2cc1OC + Nc1ccc(C#CCN(C(=O)Cc2ncc(C(F)(F)F)cc2C(F)(F)F)c2ccc(F)cc2)nn1 :: 95.4
O=c1[nH]cc(F)c(=O)[nH]1 + COC1C(OC(N)=O)C(O)C(Oc2ccc3c(O)c(NC(=O)c4ccc(O)c(CC=C(C)C)c4)c(=O)oc3c2C)OC1(C)C :: 97.2
O=C(c1cc(Cc2n[nH]c(=O)c3ccccc23)ccc1F)N1CCN(C(=O)C2CC2)CC1 + Nc1ccc(C#CCN(C(=O)Cc2ncc(C(F)(F)F)cc2C(F)(F)F)c2ccc(F)cc2)nn1 :: 98.9
O=c1[nH]cc(F)c(=O)[nH]1 + Cc1cccc(N(C)C(=O)C2C(O)CCN2c2nc(C)cc(C(F)(F)F)c2C#N)c1 :: 83.3

Record viability, T/C per entry; entries follow.
1. O=C(Nc1ccc(O)c(NS(=O)(=O)c2ccc(F)cc2)c1)c1ccc(-c2ccccc2)cc1 + COC1C(OC(N)=O)C(O)C(Oc2ccc3c(O)c(NC(=O)c4ccc(O)c(CC=C(C)C)c4)c(=O)oc3c2C)OC1(C)C
2. CCc1cc2c(N3CCc4c(cc(Cn5ccnc5)cc4-c4cn(C)nc4C(F)(F)F)C3=O)cc(C)nc2c(OC)n1 + Nc1ccc(C#CCN(C(=O)Cc2ncc(C(F)(F)F)cc2C(F)(F)F)c2ccc(F)cc2)nn1
3. COc1cccc2c1C(=O)c1c(O)c3c(c(O)c1C2=O)CC(O)(C(=O)CO)CC3OC1CC(N)C(O)C(C)O1 (stereo unspecified) + Nc1ccc(C#CCN(C(=O)Cc2ncc(C(F)(F)F)cc2C(F)(F)F)c2ccc(F)cc2)nn1

OUTPUT:
97.3
77.5
13.9

Record viability, T/C per entry; entries follow.
1. CC1COCCN1c1cc(-c2ccnn2C)c2ccnc(-c3ccn[nH]3)c2n1 (stereo unspecified) + Cc1cccc(N(C)C(=O)C2C(O)CCN2c2nc(C)cc(C(F)(F)F)c2C#N)c1
2. CNCc1ccc(-c2[nH]c3cc(F)cc4c3c2CCNC4=O)cc1 + COC1C(OC(N)=O)C(O)C(Oc2ccc3c(O)c(NC(=O)c4ccc(O)c(CC=C(C)C)c4)c(=O)oc3c2C)OC1(C)C
3. CC1COCCN1c1cc(C2(O)CC3CCC(C2)O3)c2cnn(-c3ccn[nH]3)c2n1 (stereo unspecified) + COC1C(OC(N)=O)C(O)C(Oc2ccc3c(O)c(NC(=O)c4ccc(O)c(CC=C(C)C)c4)c(=O)oc3c2C)OC1(C)C
4. CNCc1ccc(-c2[nH]c3cc(F)cc4c3c2CCNC4=O)cc1 + Nc1ccc(C#CCN(C(=O)Cc2ncc(C(F)(F)F)cc2C(F)(F)F)c2ccc(F)cc2)nn1

OUTPUT:
1: 45.3; 2: 78.3; 3: 50.8; 4: 99.7

----------
Assign viability, T/C to each entry below.
assay: Anticancer human tumor 997537-175-T-J1-PDC cell line growth inhibition [POLQ]; conditions: 997537-175-T-J1-PDC complex spheroid viability, combination with POLQ inhibitors; second compound 10 µM; first compound 1 µM; active compounds read low;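 note: luminescence signal used as a surrogate for viable cells; spheroids exposed to drugs for seven days before readout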
Numbers only, in %.

// known answers, use as guide
COc1cccc(OCCCN)c1-c1cc(Nc2cnc(C#N)cn2)n[nH]1 + Nc1ccc(C#CCN(C(=O)Cc2ncc(C(F)(F)F)cc2C(F)(F)F)c2ccc(F)cc2)nn1 :: 20.5
CC1COCCN1c1cc(C2(S(C)(=N)=O)CC2)nc(-c2ccnc3[nH]ccc23)n1 (stereo not given) + Nc1ccc(C#CCN(C(=O)Cc2ncc(C(F)(F)F)cc2C(F)(F)F)c2ccc(F)cc2)nn1 :: 81.7
COc1cccc(OCCCN)c1-c1cc(Nc2cnc(C#N)cn2)n[nH]1 + Cc1cccc(N(C)C(=O)C2C(O)CCN2c2nc(C)cc(C(F)(F)F)c2C#N)c1 :: 30.1
COc1cc2cc(C(=O)CCC(=O)O)sc2cc1OC + COC1C(OC(N)=O)C(O)C(Oc2ccc3c(O)c(NC(=O)c4ccc(O)c(CC=C(C)C)c4)c(=O)oc3c2C)OC1(C)C :: 104

INPUT: Entry COc1cccc(OCCCN)c1-c1cc(Nc2cnc(C#N)cn2)n[nH]1 + COC1C(OC(N)=O)C(O)C(Oc2ccc3c(O)c(NC(=O)c4ccc(O)c(CC=C(C)C)c4)c(=O)oc3c2C)OC1(C)C has what viability, T/C?
OUTPUT: 28
